// data source = PubChem BioAssay (NCI)

system: CAKI-1 renal; assay: NCI tumour cell line growth inhibition, 48 h
property name: TGI (µM)
State just the number; it will be interpreted in µM.

CCN1CCN(c2ccc(NC(=O)Nc3ccc(-c4cc(C(=O)NC)c5ncccc5n4)cc3)cc2C(F)(F)F)CC1 :: 5.6

Please find the next compound below.
## Task Can you look up the measured TGI of NS(=O)(=O)c1ccc(N2N=C(c3ccc(NC(=O)Nc4ccccc4)cc3)CC2c2ccc(Br)cc2)cc1 (centres undefined) for me?
## Result 8.44

###

Reported GI50 values for a set of compounds
tested on: KM12 colon; experiment: NCI tumour cell line growth inhibition, 48 h

C/C(=C\CC/C=C(\C)CC/C=C(\C)CC[C@@H](O)C(C)(C)O)CC/C=C(\C)CC[C@@H](O)C(C)(C)O :: 13.9 µM

## Task Can you look up the measured GI50 of C=C1CCC2C3(C)COC(c4ccco4)OC3CCC2(C)C1CC(Sc1ccccc1)C1=CCOC1=O (centres undefined) for me?
## Result 12.1 µM

## Task Same question, CCN1CCN(c2ccc(NC(=O)Nc3ccc(-c4cc(C(=O)NC)c5ncccc5n4)cc3)cc2C(F)(F)F)CC1 this time
## Result 3.25 µM

## Task Same question, CC[C@]12C=CCN3CC[C@@]4(c5ccc(OC)cc5N(C)[C@H]4[C@@](O)(C(=O)OC)[C@@H]1OC(=O)CCC[P+](c1ccc(F)cc1)(c1ccc(F)cc1)c1ccc(F)cc1)[C@@H]32 this time
## Result 8.96 µM

###

system: MDA-MB-468 breast; assay: NCI tumour cell line growth inhibition, 48 h; in the data active means GI50 below about 0.43 µM; inactive means the rest
Entry note: the call must match one of true = active, false = inactive

CCOC(=O)/C(=C/CC/C(C)=C/CC/C(C)=C/CCc1ccoc1)CC(=O)N1CCCCC1 :: false
COc1ccccc1-n1cnc(N)c1C(=O)c1cc(OC)c(OC)c(OC)c1 :: false
Clc1ccc(-c2cc(-c3ccccc3)nc(N3CCN(CCCNc4ccnc5cc(Cl)ccc45)CC3)n2)cc1 :: true

## Task Outcome logged for Cc1cc(F)c(C(=O)Nc2cccc(-c3nncn3C(C)C)n2)cc1-n1cnc(C2CC2)c1 in this assay:
## Result false

## Task Same question, CC[C@]12C=CCN3CC[C@@]4(c5ccc(OC)cc5N(C)[C@H]4[C@@](O)(C(=O)OC)[C@@H]1OC(=O)CCC[P+](c1ccc(F)cc1)(c1ccc(F)cc1)c1ccc(F)cc1)[C@@H]32 this time
## Result false

###

system: ACHN renal; assay: NCI tumour cell line growth inhibition, 48 h
property name: TGI (µM)
State just the number; it will be interpreted in µM.

Example entries begin here.
NS(=O)(=O)c1ccc(N2N=C(c3ccc(NC(=O)Nc4ccccc4)cc3)CC2c2ccc(Br)cc2)cc1 (centres undefined) :: 8.93
C/C(=C\CC/C=C(\C)CC/C=C(\C)CC[C@@H](O)C(C)(C)O)CC/C=C(\C)CC[C@@H](O)C(C)(C)O :: 18.3

Please find the next molecule below.
## Task Can you look up the measured TGI of CCN1CCN(c2ccc(NC(=O)Nc3ccc(-c4cc(C(=O)NC)c5ncccc5n4)cc3)cc2C(F)(F)F)CC1 for me?
## Result 4.73

###

Reported TGI values for a set of molecules
test system: CCRF-CEM leukemia; assay: NCI tumour cell line growth inhibition, 48 h
State just the number; it will be interpreted in µM.

Example entries begin here.
CC[C@]12C=CCN3CC[C@@]4(c5ccc(OC)cc5N(C)[C@H]4[C@@](O)(C(=O)OC)[C@@H]1OC(=O)CCC[P+](c1ccc(F)cc1)(c1ccc(F)cc1)c1ccc(F)cc1)[C@@H]32 :: 37.4
C/C(=C\CC/C=C(\C)CC/C=C(\C)CC[C@@H](O)C(C)(C)O)CC/C=C(\C)CC[C@@H](O)C(C)(C)O :: 39.7

Please find the next molecule below.
## Task Can you look up the measured TGI of NS(=O)(=O)c1ccc(N2N=C(c3ccc(NC(=O)Nc4ccccc4)cc3)CC2c2ccc(Br)cc2)cc1 (stereo not given) for me?
## Result 5.95

###

Reported GI50 values for a set of molecules
system: RXF 393 renal; experiment: NCI tumour cell line growth inhibition, 48 h

Example entries begin here.
NS(=O)(=O)c1ccc(N2N=C(c3ccc(NC(=O)Nc4ccccc4)cc3)CC2c2ccc(Br)cc2)cc1 (centres undefined) :: 1.82 µM
C/C(=C\CC/C=C(\C)CC/C=C(\C)CC[C@@H](O)C(C)(C)O)CC/C=C(\C)CC[C@@H](O)C(C)(C)O :: 5.93 µM

## Task Can you look up the measured GI50 of CC[C@]12C=CCN3CC[C@@]4(c5ccc(OC)cc5N(C)[C@H]4[C@@](O)(C(=O)OC)[C@@H]1OC(=O)CCC[P+](c1ccc(F)cc1)(c1ccc(F)cc1)c1ccc(F)cc1)[C@@H]32 for me?
## Result 8.46 µM

## Task Same question, CCN1CCN(c2ccc(NC(=O)Nc3ccc(-c4cc(C(=O)NC)c5ncccc5n4)cc3)cc2C(F)(F)F)CC1 this time
## Result 0.494 µM

###

Reported GI50 values for a set of compounds
system: SF-268 CNS; test: NCI tumour cell line growth inhibition, 48 h

Example entries begin here.
NS(=O)(=O)c1ccc(N2N=C(c3ccc(NC(=O)Nc4ccccc4)cc3)CC2c2ccc(Br)cc2)cc1 (centres undefined) :: 2.63 µM
CCN1CCN(c2ccc(NC(=O)Nc3ccc(-c4cc(C(=O)NC)c5ncccc5n4)cc3)cc2C(F)(F)F)CC1 :: 3.09 µM

## Task Can you look up the measured GI50 of C/C(=C\CC/C=C(\C)CC/C=C(\C)CC[C@@H](O)C(C)(C)O)CC/C=C(\C)CC[C@@H](O)C(C)(C)O for me?
## Result 13.6 µM

## Task Same question, CN(C)c1nc(NCCNS(=O)(=O)c2ccc(C(=O)/C=C/c3ccc(Cl)cc3)cc2)nc(N2CCOCC2)n1 this time
## Result 17.7 µM

###

tested on: 786-0 renal; assay: NCI tumour cell line growth inhibition, 48 h
property name: TGI (µM)
State just the number; it will be interpreted in µM.

Example entries begin here.
C/C(=C\CC/C=C(\C)CC/C=C(\C)CC[C@@H](O)C(C)(C)O)CC/C=C(\C)CC[C@@H](O)C(C)(C)O :: 24.1
CCN1CCN(c2ccc(NC(=O)Nc3ccc(-c4cc(C(=O)NC)c5ncccc5n4)cc3)cc2C(F)(F)F)CC1 :: 0.583

Please find the next compound below.
## Task Can you look up the measured TGI of CN(C)c1nc(NCCNS(=O)(=O)c2ccc(C(=O)/C=C/c3ccc(Cl)cc3)cc2)nc(N2CCOCC2)n1 for me?
## Result 28.8

###

test system: MDA-MB-468 breast; test: NCI tumour cell line growth inhibition, 48 h
Reported TGI values for a set of compounds
State just the number; it will be interpreted in µM.

Clc1ccc(-c2cc(-c3ccccc3)nc(N3CCN(CCCNc4ccnc5cc(Cl)ccc45)CC3)n2)cc1 :: 1.61
COc1ccc(-c2nn(-c3cccc(Cl)c3)cc2/C=C2\NC(=S)N(c3ccc(Cl)cc3)C2=O)cc1 :: 6.89
COc1ccccc1-n1cnc(N)c1C(=O)c1cc(OC)c(OC)c(OC)c1 :: 6.57

Please find the next compound below.
## Task For the record CCN(C(=O)N1CCN(c2cc3c(cc2F)c(=O)c(C(=O)O)cn3C2CC2)CC1)c1nc(-c2ccccc2)cs1 , what value of TGI is listed for MDA-MB-468 breast?
## Result 8.82
